Catalogue of GI50 values
- System: UACC-257
- Test protocol: NCI tumour cell line growth inhibition, 48 h
Counter-ions that a name gives are not always drawn. Active and inactive are the calls of the source. Cut-off read from the data, not from the text of the source: active = GI50 up to about 1.1 µM and inactive = higher.
Value kind: GI50

{"columns": ["Molecule", "Result"],
 "data": [
  ["CC(=O)C1=CN=C2C(=O)N(c3ccccc3)N(C)C12C (stereo unspecified)", "> 100 µM (inactive)"],
  ["CN(C)c1ccc(/C=C2\\N=C(NN)NC2=O)cc1", "> 100 µM (inactive)"],
  ["CCOc1cn(C2OC(CO)C(O)C2O)c(=O)[nH]c1=O (stereo unspecified)", "> 100 µM (inactive)"],
  ["[O-][S+]1Cc2ccccc2CS1 (stereo unspecified)", "14.7 µM (inactive)"],
  ["O=C1CC2(CCN(Cc3ccccc3)CC2)C(=O)N1N1CCCCC1", "> 100 µM (inactive)"],
  ["O=C(/C=C/c1ccccc1)c1ccc(NCc2nc3ccccc3[nH]2)cc1", "3.73 µM (inactive)"],
  ["CCCNC(=O)CCC(C)[C@H]1CCC2C3C(C[C@H](OC(C)=O)[C@@]21C)[C@@]1(C)CCC2(C[C@H]1C[C@H]3OC(C)=O)OOC1(CCCCC1)OO2 (stereo partly specified)", "5.3 µM (inactive)"],
  ["CC(=O)Nc1ccc(-c2nc3ccccc3s2)cc1O", "31.6 µM (inactive)"],
  ["C[N+](C)(C)CC1CCCCC1O (stereo unspecified)", "> 100 µM (inactive)"],
  ["CC(=O)NCc1c(C(N)=O)ncn1Cc1ccccc1", "> 100 µM (inactive)"],
  ["Cc1ccc(F)c2c(=O)cc(-c3ccccc3)[nH]c12", "> 100 µM (inactive)"],
  ["COc1ccc(/C=C2\\CCC(CCN(C)C)(C3=CCCC3)C2=O)cc1Br (stereo unspecified)", "2.43 µM (inactive)"],
  ["COc1cc2c(cc1OCc1ccccc1)NC(=O)[C@@H]1C[C@@H](O)CN1C2=O", "> 100 µM (inactive)"],
  ["Cc1ccc(NC(=O)C(=O)C(C#N)c2ccccc2C)cc1C (stereo unspecified)", "> 100 µM (inactive)"],
  ["COC(=O)[C@@]1(C)C(=O)CC[C@@H]1C=O", "> 100 µM (inactive)"],
  ["O=C1C=C(Nc2ccc(Br)cc2)c2ccccc2/C1=N/O", "1.58 µM (inactive)"],
  ["O=C1C[S+]([O-])C23c4cc5ccccc5n4CCC2CCCN13 (stereo unspecified)", "> 100 µM (inactive)"],
  ["Oc1cc(-c2ccccc2)nc2cc(Cl)ccc12", "14.1 µM (inactive)"],
  ["C=C(C)[C@H]1CC23C(=O)C(C(=O)C(C)C)=C(O)[C@](C)(C[C@H]2C1(C)C)C3=O [LALIBINONE B]", "24 µM (inactive)"],
  ["C#CCNC(=O)CCC(N)C(=O)O (stereo unspecified)", "> 100 µM (inactive)"],
  ["O=C1c2ccccc2C(=O)c2c(NCCNCCO)ccc(O)c21", "3.29 µM (inactive)"],
  ["Cc1cc(O)nc(NN2C(Cl)C(=O)C2c2ccco2)n1 (stereo unspecified)", "48.9 µM (inactive)"],
  ["Cc1nccc2c1[nH]c1cc(O)ccc12 [HARMOL HYDROCHLORIDE]", "82.4 µM (inactive)"],
  ["O=C1N=C(Nc2ccccc2Cl)SC1C(=O)Nc1ccc([N+](=O)[O-])cc1[N+](=O)[O-] (stereo unspecified)", "> 100 µM (inactive)"],
  ["CNC(=S)/N=c1/sc(NC)nc2sc3c(c12)CCCC3", "> 100 µM (inactive)"],
  ["COc1cc2c(cc1OC)C(C(CBr)CBr)N(C1CCCC1)CC2 (stereo unspecified)", "> 100 µM (inactive)"]
]}

The measured values listed here are drawn from ChEMBL document CHEMBL1201862.
